Readout: melting point

Compound	Measured Value
COc1ccc2c(c1)C(/C=C/C(C)=C/C(=O)O)=CC1(CCCCC1)CO2 [Example 34B]	173 to 174 °C
COc1ccc2c(c1)C(/C=C/C(C)=C/C(=O)O)=C(C)C(C)(C)CO2 [Example 54B]	129 to 130 °C
CC(=C/C(=O)O)/C=C/C1=Cc2ccccc2OC1(C)C	176 °C
CCC(/C=C/C1=CC(C)(C)COc2ccc(OC)cc21)=C\C(=O)O [Example 43B]	166 to 168 °C

## Input For the compound CCOC(=O)/C=C(C)/C=C/C1=CC(C)(C)COc2cc(-c3ccc(F)cc3)ccc21 [Example 38A] , what melting point is on record?
## Output 113 to 115 °C

## Input Further, for "CC(/C=C/C1=Cc2ccccc2OC1)=C\C(=O)O" ?
## Output 226 to 228 °C

## Input Further, for CCCCCCCCCNC1Oc2ccccc2C=C1/C=C/C(C)=C/C(=O)O (stereo not drawn) ?
## Output 104 to 106 °C

## Input Further, for "CC(/C=C/C1=Cc2ccccc2OC1(C)C)=C\C(=O)O" ?
## Output 164 to 166 °C

## Input Further, for COc1ccc2c(c1)OC(C)(C)C=C2/C=C/C(C)=C/C(=O)O [Example 48B] ?
## Output 162 to 163 °C

###

Readout: melting point

# annotated cases, reported melting point shown
Compound	melting point
CC(/C=C/C1=C(c2ccccc2)c2ccccc2OC1)=C\C(=O)O [Example 7b]	258 to 260 °C
CC(=C/C(=O)O)/C=C/C1=Cc2ccccc2OC1 [Example 12b]	224 to 226 °C
CC(/C=C/C1=CC(C)(C)COc2cc(C)c(C)cc21)=C\C(=O)O [Example 37B]	171 to 173 °C
CCCCCC1C=C(/C=C/C(C)=C/C(=O)O)c2cc(OC)ccc2OC1 (stereo not drawn) [Example 41]	154 to 156 °C
CC(/C=C/C1=CC(C)(C)COc2ccc(-c3ccc(C(F)(F)F)cc3)cc21)=C\C(=O)O [Example 45B]	194 to 196 °C

## Input For the compound CC(/C=C/C1=CC(C)(C)COc2ccc(O)cc21)=C\C(=O)O [Example 44B] , what melting point is on record?
## Output 206 °C

## Input Further, for CCOC(=O)/C=C(C)/C=C/C1=Cc2ccccc2OC1 [Example 3a] ?
## Output 110 to 112 °C

## Input Further, for COc1ccc2c(c1)C(/C=C/C(C)=C/C(=O)O)=CC(C)(C)CS2 [Example 47B] ?
## Output 159 to 161 °C

## Input Further, for COc1ccc2c(c1)OCC(C)(C)C=C2/C=C/C(C)=C/C(=O)O [Example 39B] ?
## Output 178 to 180 °C

###

Reported melting point by item:

# annotated cases, reported melting point shown
Molecule	Measured Value
CC1=C(/C=C/C(C)=C/C(=O)O)COc2ccccc21 [Example 11b]	216 to 218 °C
CC(/C=C/C1=CC(C)(C)COc2ccc(C(C)C)cc21)=C\C(=O)O [Example 40B]	145 °C
COc1cccc2c1C(/C=C/C(C)=C/C(=O)O)=CC(C)(C)O2 [Example 46B]	160 to 162 °C
CCCC(/C=C/C1=CC(C)(C)COc2ccc(OC)cc21)=C\C(=O)O [Example 49B]	174 to 176 °C
CC(/C=C/C1=CC(C)(C)COc2cc(-c3ccc(F)cc3)ccc21)=C\C(=O)O [Example 38B]	207 to 209 °C
CC(/C=C/C1=CC(C)(C)COc2ccc(C3CCCCC3)cc21)=C\C(=O)O [Example 50B]	195 to 196 °C
CC(/C=C/C1=Cc2ccccc2OC1c1ccccc1)=C\C(=O)O (centres unmarked) [Example 14b]	200 to 202 °C

Pending molecule:
## Input For the molecule CCCCCC(/C=C/C1=CC(C)(C)COc2ccc(OC)cc21)=C\C(=O)O [Example 52B] , what melting point is on record?
## Output 147 to 149 °C
